Attribution: patent US10233180B2

Test system: Human ovarian cancer cell strain OVCAR-8
assay.remarks: MTT assay, inhibition of tumor cell growth in vitro, 72 h
Type: cell-based
particulars: Homo sapiens, OVCAR-8, MTT, read-out: Antitumor proliferative activities of tumor cell (IC50, μM) OVCAR-8
So basically: is IC50 under 3 µM? Then Criterion met. Not under? Then Criterion not met.

molecule: CCC[C@H]1CNC[C@@H](NC(=O)c2cc(-c3c(Cl)cnn3C)c(Cl)o2)[C@@H]1c1cccc(F)c1
experimental.target: Human ovarian cancer cell strain OVCAR-8
category: Criterion met
//
molecule: CCC[C@H]1CNC[C@@H](NC(=O)c2cc(-c3c(Cl)cnn3C)c(Cl)s2)[C@@H]1c1cccc(F)c1
experimental.target: Human ovarian cancer cell strain OVCAR-8
category: Criterion met
//
molecule: Cc1cnn(C)c1-c1cnc(C(=O)N[C@H]2CNC[C@@H]2c2ccc(F)c(F)c2)cc1F (racemic)
experimental.target: Human ovarian cancer cell strain OVCAR-8
category: Criterion met
//
molecule: Cc1nc(C(=O)N[C@H]2CNCC[C@@H]2c2ccncc2)ccc1-c1c(Br)cnn1C (racemic)
experimental.target: Human ovarian cancer cell strain OVCAR-8
category: Criterion not met
//
molecule: Cn1nccc1-c1coc(C(=O)N[C@H]2CNCC[C@@H]2c2ccccc2)c1 (racemic)
experimental.target: Human ovarian cancer cell strain OVCAR-8
category: Criterion met
//
molecule: Cn1ncc(Cl)c1-c1cc(C(=O)N[C@@H]2CNCC[C@H]2c2ccc(Cl)c(Cl)c2)oc1Cl
experimental.target: Human ovarian cancer cell strain OVCAR-8
category: Criterion met
//
molecule: Cn1ncc(Cl)c1-c1ccc(C(=O)N[C@@H]2CNC(CCO)C[C@H]2c2ccc(F)c(F)c2)cc1 (stereo partly shown)
experimental.target: Human ovarian cancer cell strain OVCAR-8
category: Criterion met
//
molecule: CCCc1cc(C(=O)N[C@H]2CNCC[C@@H]2c2cc(OC)cc(OC)c2)ccc1-c1c(Br)cnn1C (racemic)
experimental.target: Human ovarian cancer cell strain OVCAR-8
category: Criterion not met
//
molecule: Cn1ncc(Cl)c1-c1cc(C(=O)N[C@H]2CNCC[C@@H]2c2ccccc2)oc1Cl (racemic)
experimental.target: Human ovarian cancer cell strain OVCAR-8
category: Criterion met
//
molecule: Cc1cccc([C@H]2CCNC[C@@H]2NC(=O)c2cc(Cl)c(-c3ncnn3C)o2)c1 (racemic)
experimental.target: Human ovarian cancer cell strain OVCAR-8
category: Criterion not met
//
molecule: Cn1ncc(Cl)c1-c1cc(C(=O)N[C@H]2CNCC[C@@H]2c2ccc(F)c(F)c2)oc1Cl (racemic)
experimental.target: Human ovarian cancer cell strain OVCAR-8
category: Criterion not met
//
molecule: Cn1ncc(Cl)c1-c1cc(C(=O)N[C@@H]2CNC(CCNS(C)(=O)=O)C[C@H]2c2ccc(F)c(F)c2)oc1Cl (stereo partly shown)
experimental.target: Human ovarian cancer cell strain OVCAR-8
category: Criterion met
//
molecule: CC1CCC([C@H]2CCNC[C@@H]2NC(=O)c2ncc(-c3c(Cl)cnn3C)c(Cl)n2)CC1 (stereo partly shown)
experimental.target: Human ovarian cancer cell strain OVCAR-8
category: Criterion not met
//
molecule: Cn1ncc(Br)c1-c1csc(C(=O)N[C@H]2CNCC[C@@H]2c2ccc(F)c(F)c2)c1 (racemic) [Compound 38]
experimental.target: Human ovarian cancer cell strain OVCAR-8
category: Criterion not met
//
molecule: C=Cc1cnn(C)c1-c1ccc(C(=O)N[C@@H]2CNCC[C@H]2c2cccc(F)c2)s1
experimental.target: Human ovarian cancer cell strain OVCAR-8
category: Criterion not met
//
molecule: Cn1ncc(Cl)c1-c1cc(C(=O)N[C@H]2CNCC[C@@H]2c2ccc(C(F)(F)F)cc2)oc1Cl (racemic) [Compound 30]
experimental.target: Human ovarian cancer cell strain OVCAR-8
category: Criterion met
//
molecule: CNC(=O)CC1C[C@@H](c2ccc(F)c(F)c2)[C@H](NC(=O)c2ccc(-c3c(Cl)cnn3C)c(Cl)c2)CN1 (stereo partly shown)
experimental.target: Human ovarian cancer cell strain OVCAR-8
category: Criterion not met
//
molecule: Cn1ncc(Cl)c1-c1ccc(C(=O)N[C@@H]2CNCC[C@H]2c2c[nH]c3ccccc23)cc1Cl
experimental.target: Human ovarian cancer cell strain OVCAR-8
category: Criterion not met
//
molecule: Cc1cc(C(=O)N[C@@H]2CNCC[C@H]2c2ccc(Cl)c(C(F)(F)F)c2)ccc1-c1c(Cl)cnn1C
experimental.target: Human ovarian cancer cell strain OVCAR-8
category: Criterion met
//
molecule: CNC(=O)CC1C[C@@H](c2ccc(F)c(F)c2)[C@H](NC(=O)c2ccc(-c3c(Cl)cnn3C)s2)CN1 (stereo partly shown)
experimental.target: Human ovarian cancer cell strain OVCAR-8
category: Criterion met
//
molecule: Cn1ncc(Cl)c1-c1cnc(C(=O)N[C@@H]2CNCC[C@H]2c2cccc(F)c2)cc1Cl
experimental.target: Human ovarian cancer cell strain OVCAR-8
category: Criterion met
//
molecule: Cn1ncc(Br)c1-c1csc(C(=O)N[C@H]2CNCC[C@@H]2c2ccc(F)c(F)c2)c1 [Compound 41]
experimental.target: Human ovarian cancer cell strain OVCAR-8
category: Criterion not met

---

Test system: human colon cancer cell strain HCT-116
assay.remarks: MTT assay, inhibition of tumor cell growth in vitro, 72 h
Format: cell-based
particulars: Homo sapiens, HCT-116, MTT, read-out: Antitumor proliferative activities of tumor cell (IC50, μM) HCT-116 (converted)
The label Y is reserved for IC50 strictly under 3 µM; N covers values equal to or above it.

compound: CC(Cl)c1ccc([C@H]2CCNC[C@@H]2NC(=O)c2cc(Cl)c(-c3ncnn3C)s2)cc1 (some centres unmarked)
experimental.target: human colon cancer cell strain HCT-116
category: N
//
compound: Cn1ncc(Cl)c1-c1csc(C(=O)N[C@H]2CNCC[C@@H]2c2ccc(F)c(F)c2)c1 (racemic)
experimental.target: human colon cancer cell strain HCT-116
category: N
//
compound: CNC(=O)CC1C[C@@H](c2ccc(F)c(F)c2)[C@H](NC(=O)c2cc(-c3c(Cl)cnn3C)cs2)CN1 (some centres unmarked)
experimental.target: human colon cancer cell strain HCT-116
category: Y
//
compound: Cc1c(C(=O)N[C@H]2CNCC[C@@H]2C2CCCC(Cl)C2)sc(Cl)c1-c1ncnn1C (some centres unmarked)
experimental.target: human colon cancer cell strain HCT-116
category: Y
//
compound: CN(C)CCC1C[C@@H](c2ccc(Cl)c(Cl)c2)[C@H](NC(=O)c2cc(-c3c(Cl)cnn3C)c(Cl)o2)CN1 (some centres unmarked)
experimental.target: human colon cancer cell strain HCT-116
category: Y
//
compound: Cn1ncc(Cl)c1-c1cc(C(=O)N[C@@H]2CNC(CCO)C[C@H]2c2ccc(Cl)c(Cl)c2)oc1Cl (some centres unmarked)
experimental.target: human colon cancer cell strain HCT-116
category: Y
//
compound: Cn1ncc(Cl)c1-c1ccc(C(=O)N[C@@H]2CNCC[C@H]2c2c[nH]c3ccccc23)cc1Cl
experimental.target: human colon cancer cell strain HCT-116
category: Y
//
compound: Cn1ncc(Br)c1-c1coc(C(=O)N[C@H]2CNC[C@@H]2c2ccc(F)c(F)c2)c1 (racemic)
experimental.target: human colon cancer cell strain HCT-116
category: Y
//
compound: Cn1ncc(Br)c1-c1coc(C(=O)N[C@H]2CNC[C@@H]2c2ccc(C(F)(F)F)cc2)c1 (racemic)
experimental.target: human colon cancer cell strain HCT-116
category: N
//
compound: CNC(=O)CC1C[C@@H](c2ccc(Cl)c(Cl)c2)[C@H](NC(=O)c2cc(-c3c(Cl)cnn3C)c(Cl)o2)CN1 (some centres unmarked)
experimental.target: human colon cancer cell strain HCT-116
category: N
//
compound: Cn1ncc(Br)c1-c1csc(C(=O)N[C@H]2CNCC[C@@H]2c2ccc(F)c(F)c2)c1 [Compound 41]
experimental.target: human colon cancer cell strain HCT-116
category: N
//
compound: Cn1ncc(Cl)c1-c1ccc(C(=O)N[C@@H]2CNCC[C@H]2c2ccc(Cl)c(C(F)(F)F)c2)c(F)c1
experimental.target: human colon cancer cell strain HCT-116
category: Y
//
compound: C=CCC1C[C@@H](c2ccc(Cl)c(Cl)c2)[C@H](NC(=O)c2cc(-c3c(Cl)cnn3C)c(Cl)o2)CN1 (some centres unmarked)
experimental.target: human colon cancer cell strain HCT-116
category: Y
//
compound: CC(=O)NCCC1C[C@@H](c2ccc(F)c(F)c2)[C@H](NC(=O)c2cc(-c3c(Cl)cnn3C)c(Cl)o2)CN1 (some centres unmarked)
experimental.target: human colon cancer cell strain HCT-116
category: N
//
compound: CCc1sc(C(=O)N[C@H]2CNCC[C@@H]2c2cnc3c(c2)CCC(C)C3)cc1-c1c(C(C)C)cnn1C (some centres unmarked)
experimental.target: human colon cancer cell strain HCT-116
category: N
//
compound: Cn1ncc(Br)c1-c1ccc(C(=O)N[C@@H]2CNCC[C@H]2c2cc(F)c(F)c(F)c2)cc1
experimental.target: human colon cancer cell strain HCT-116
category: Y
//
compound: Cn1ncc(Cl)c1-c1cc(C(=O)N[C@@H]2CNC(CC(N)=O)C[C@H]2c2ccc(Cl)c(Cl)c2)oc1Cl (some centres unmarked)
experimental.target: human colon cancer cell strain HCT-116
category: N
